Cited source for all entries: ChEMBL document CHEMBL1201862

# Test system: MOLT-4
# test_details: NCI tumour cell line growth inhibition, 48 h
Active and inactive are the calls of the source. Rule as the data show it: active = GI50 up to about 1.1 µM and inactive = higher.
I'd appreciate it if you could supply GI50 values for the items below.

GI50 reported for this compound CC(CO)CCNc1ncnc2c1ncn2CCC(=O)O (stereo not given) : > 100 µM (inactive)

Entry O=C1C=CC[C@H]2O[C@@H](COC(=O)Cc3ccccc3)C[C@H]2O1 , GI50 reported as 25.4 µM (inactive)

Record summary for COc1ccc2c(c1)C(N)=C(c1ccccc1)C2=O : reported GI50 = 58.5 µM (inactive)

Form field GI50, entry NC1=NC(=O)/C(=C/c2ccccc2[N+](=O)[O-])C(N)=N1 : > 100 µM (inactive)

Noted for O=P(c1ccccc1)(c1ccccc1)C1CC=C(c2ccccc2)C2(CCCC2)C1 (stereo not given) : its GI50 reads 21.4 µM (inactive)

Measured GI50 of Cc1cc(S(=O)(=O)N=C2N(Cc3ccccc3)CCN2Cc2ccccc2)c(S)cc1Cl : > 100 µM (inactive)

The compound listed as O=c1ccc2ccccc2o1 [COUMARIN] has a reported GI50 of > 100 µM (inactive)

Lab book: GI50 of NNC(=O)c1nnn(N)c1S noted as > 100 µM (inactive)

Lookup result for COc1ccc2c(c1)[n+]([O-])c(C(=O)CC(=O)C(=O)Nc1cccc(C)c1C)c(C)[n+]2[O-] ; measured GI50: > 100 µM (inactive)

Lab note: O=C1C=C(Nc2ccccc2C(=O)CC(=O)C(=O)Nc2cccc(C(F)(F)F)c2)c2ccccc2C1=O gave GI50 of 4.83 µM (inactive)

Per the record, COc1cc(/C=C(\C#N)C(N)=O)cc(Br)c1O has GI50 of > 100 µM (inactive)

Memo: COc1ccc(C(=O)C(C(=O)C(=O)NCCCNC(=O)C(=O)C(C(=O)c2ccc(OC)cc2)c2ccc(OC)cc2)c2ccc(OC)cc2)cc1 (stereo not given) , reported GI50: > 100 µM (inactive)

Measured GI50, CC1(CO)C(O)CCC2(C)C1CCC1CC3CC12CCC3(O)CO (stereo not given) : 5.12 µM (inactive)

Memo: O=C1c2cccc3c2C(=O)c2c(cccc21)OCCOCCOCCOCCO3 , reported GI50: 31.5 µM (inactive)

Per the records, this compound ( Oc1ccc(CCc2cc(O)cc(O)c2)cc1 [DIHYDRORESVERATROL] ) has GI50 equal to 90.2 µM (inactive)

###

# Tested on: NCI-H460
# test_details: NCI tumour cell line growth inhibition, 48 h
The source made the active and inactive calls. Rule as the data show it: active = GI50 up to about 1.1 µM and inactive = higher.
Valid outcomes are listed here; reply with one: True = active, False = inactive

Query: Recorded test outcome, item COc1cc(/C=N\O)nc(-c2ccccn2)c1
Result: True

Query: Please state the recorded outcome for this molecule: CC(C)N(C(C)C)S(=O)(=O)CC12CCC(C/C1=N\O)C2 (configuration not stated)
Result: False

Query: Write down the call the test reported for this molecule. Item: Cc1ccc(NC(=O)/C(CC(=O)c2c[n+]([O-])c3ccccc3[n+]2[O-])=N\NC(=O)C[n+]2ccccc2)cc1
Result: False

Query: Tell me the recorded outcome of this test for Cc1c(C)c2c(c(N)c1C#N)C(=O)N(Cc1ccc(S(N)(=O)=O)cc1)C2=O .
Result: False

Query: # lookup: test call for CC1(C)[C@@H]2CC[C@@]1(C)[C@H](O)[C@@H]2SCc1ccccc1
Result: False

Query: Record lookup: outcome of this test for CC(C)(C)N(Cc1ccc2c(c1)OCO2)C(=O)/C=C\[S+]([O-])c1ccccc1 (configuration not stated) ?
Result: False

Query: Called result for Cc1ccc2c(c1)C1C(CO2)C(c2ccccc2)=NN1c1ccccc1 (configuration not stated)
Result: False

Query: How was COC(=O)/C(C#N)=C1\NC(=O)CC(c2ccccc2)C1C#N (configuration not stated) classified in this test?
Result: False

Query: Hi, do you know how COc1cccc2c1NC(=O)Cc1c-2[nH]c2ccccc12 came out in this test?
Result: False

Query: Please share the test call associated with O=C(N/C(=C\c1ccccc1)c1nc2ccccc2c(=O)o1)c1ccccc1 .
Result: False

Query: How was CC(=O)c1ccc(NC(=O)/C(CC(=O)c2sc(-c3cccnc3)nc2C)=N/NC(N)=O)cc1 classified in this test?
Result: False

Query: Hi, do you know how COc1cc([C@@H]2c3cc4c(cc3[C@H](OC3OC5COC(C(C)C)OC5C(O)C3O)C3COC(=O)[C@@H]32)OCO4)cc(OC)c1OC (some centres not stated) came out in this test?
Result: False

Query: Each molecule tested received a call. Report the one for Cc1ccc(NC(=O)/C=C/c2ccccc2)c(C)c1 .
Result: False

Query: For O=C1c2cccc3cccc(c23)C(=O)N1CCN(CCO)CCO , what call appears in the results of this test?
Result: False

Query: In this assay, the call recorded for CC(=O)N[C@@H]1C(O)CN2C(=O)C(=O)O[C@H](C(O)CO)[C@@H]12 (some centres not stated) was what?
Result: False

Query: Would you mind telling me which call this test gave C=CCOc1ccc(C2c3c(n[nH]c3O)CC(O)(OCC)C2C(=O)OCC)cc1OC (configuration not stated) ?
Result: False

Query: What call does the record list for CC1(C)OC(C(N)=O)=C(C(N)=O)O1 ?
Result: False
